Each record here notes measured pIC50.
# TARGET OR SYSTEM: Aldo-keto reductase family 1 member B1 (Rattus norvegicus, UniProt P07943)
Answer as the number alone; pIC50 is minus log10 of concentration in mol/L.

>  <RECORD SMILES>
NC(=O)[C@H]1C[C@]2(NC(=O)NC2=O)c2cc(F)ccc2O1

>  <RECORDED RESULT>
6.24

$$$$

Field: next molecule
// query Can you share its pIC50? I mean this molecule: `NC(=O)[C@@H]1C[C@]2(NC(=O)NC2=O)c2cc(F)ccc2O1`
// result 7.46
